protocolSummary: amyloid nucleation score (Sup35N fusion, yeast selection) (log enrichment); library NNK3; higher = more nucleation; inactive = no reads after selection;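 further: zero at mode of non-aggregating sequences after 7 days selection at 30°C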
attributeMeasured: amyloid nucleation score
Lab note: write the figure by itself, no unit.

What value of amyloid nucleation score has been recorded for this entry: `RRGYLVYFGSTFYYSSNSFW`
0.468

Field request: amyloid nucleation score | item: `YYWCFSF`
2.23

Reported amyloid nucleation score, substance `MCRMLFISGIQNCDPDVIMH` : ____
1.15

Give the measured amyloid nucleation score of `LCTLSCFAICD` .
0.74

====

protocolSummary: amyloid nucleation score (Sup35N fusion, yeast selection) (log enrichment); library NNK3; higher = more nucleation; inactive = no reads after selection
attributeMeasured: amyloid nucleation score

Reference set, count: 6
RLHVRCNCDLSDGVPRAVCE = 0.599
VSRRFVIM = 0.45
YIETISPFLCGCYSIFSPMI = 2.8
CLRECWCSGNTTHGSHWSTC = inactive
VFPGTAVNHMESVHGWLVNY = inactive
VLMECSNFAVEQTARLVPVR = inactive

So what's the measured amyloid nucleation score for this one? `TKLWFCNFCYSLDAGIGKCV`
2.37

Please give the measured amyloid nucleation score for this substance: `LNFNSWNGLKYR`
inactive

====

protocolSummary: amyloid nucleation score (Sup35N fusion, yeast selection) (log enrichment); library NNK2; higher = more nucleation; inactive = no reads after selection
Everything with amyloid nucleation score lower than 0.04 is F; everything else, including exactly 0.04, is T.

AKVWDCGSPKVQYIVARQVV = T
HIGSVVVELLSVRLLWHCMH = T
VEGLNCVLSDNKVANGS = F
FWVVIVAHSVSWLLLTWQLE = T
KLIVMGTNPGRVGNGWKRKS = T

State whether the measured amyloid nucleation score reaches 0.04, counting equality as reaching it, for `EGFLRIVKVVTTIWWTGLFC`
F

In plain terms: is recorded amyloid nucleation score at least 0.04 for `FVYSVRS` ?
F

Does `TVWYCALSL` have a reported amyloid nucleation score of at least 0.04?
T

====

protocolSummary: amyloid nucleation score (Sup35N fusion, yeast selection) (log enrichment); library NNK3; higher = more nucleation; inactive = no reads after selection
attributeMeasured: amyloid nucleation score

These solved cases illustrate the format of a correct answer.
YDMSDMNCRRIW = inactive
YDGLSSAMGEHIRNNNCLLV = inactive
AIIDYFMM = inactive
SLNNSMVWKYH = inactive
GDERGLLMYVPG = inactive
VLRYWRRLGQYTAGSYPEVL = inactive
QNVWSSVDNRWSIVENCTMA = 0.464
YEKPCEG = inactive
ISHVEYLVLEPSMVYF = -0.349
LSVMLQ = 0.988

Recorded amyloid nucleation score for `SRYHLDFRYYSINKSLMSGV` , please?
inactive

Tell me the measured amyloid nucleation score of `TPEVISSV` , please.
inactive

What value of amyloid nucleation score has been recorded for this entry: `MSFRIAKDIMCLVGFSLRCT`
inactive

What value of measured amyloid nucleation score is listed for `NMVISYGVWYCDRKD` ?
0.84

Param item = `MYMIWSWCVQMLVNLNHAMA` ; retrieve measured amyloid nucleation score.
inactive

====

protocolSummary: amyloid nucleation score (Sup35N fusion, yeast selection) (log enrichment); library NNK1; higher = more nucleation; inactive = no reads after selection
Assign classes using reported amyloid nucleation score values and the ranges band 1 = under -0.2, band 2 = from -0.2 up to 0.3, band 3 = 0.3 and over, please.

GDKCLVTYCYLLGDGEGQQS = band 2

The entry to classify is `CLPRSGLSINWTVSHNYRLI` ; which class holds it?
band 2

Could you tell me which band `EIIFVRLGANEHWSHNVYVS` belongs to?
band 1

Hi, small favor: classify `LGLMTFFVWFNWG` by its amyloid nucleation score when you get a moment.
band 1

Band assignment needed for `YRPNLLNSLTPTKTSIGSVY` please.
band 3

====

protocolSummary: amyloid nucleation score (Sup35N fusion, yeast selection) (log enrichment); library NNK2; higher = more nucleation; inactive = no reads after selection
Outcome: condition met for amyloid nucleation score of at least 1; condition not met for anything lower.

Look over these answered cases.
KYMCSLMEATFLYNGSALRC = condition not met
LVRSIHMVPLTWFRSNSGMF = condition met
EVSNRCRRLSTRRVHSVLVG = condition met
TPVYPRRSIVLICSISMLRK = condition met
VDFTCLYSVNFRIHVYISDM = condition met

hey, is amyloid nucleation score for this one >= 1? `VSTKVGSSYEVVGYKVSHFG`
condition not met

Determine whether this sequence has amyloid nucleation score no lower than 1: `VATWGDQVLRMRWAALRLCV`
condition met

Threshold query (amyloid nucleation score >= 1) on `RNLYGHISVIFCGDNFDGSC`
condition met

Textbook exercise: given the entry `LFNVMFRSLMVGWMYHENGL` , state whether its amyloid nucleation score is greater than or equal to 1.
condition not met

Is amyloid nucleation score at least 1? Consider `KLGFWVGSWLSSRSVDCSCM`
condition met

Decide: amyloid nucleation score of `HFNFCLWDNENYRNGMVWCR` >= 1?
condition not met

amyloid nucleation score >= 1 for `EKTFRFADYLMCPASSRSSV` ?
condition not met

Is amyloid nucleation score at least 1? Consider `SLGLGDVWGGQAYRSAGA`
condition not met

# bool: amyloid nucleation score of `KSVFYIWFSHRVSVVAVRQL` >= 1
condition met

====

protocolSummary: amyloid nucleation score (Sup35N fusion, yeast selection) (log enrichment); library NNK3; higher = more nucleation; inactive = no reads after selection
attributeMeasured: amyloid nucleation score

HWFRTGDMGVDFTVEACDWL = inactive
CNYLTMSGF = inactive
CNVRSFRFRCSGSPHSARSS = inactive
ISRVCSNFLGLDVTFLMLLT = 1.42
NNVVVL = inactive
SVSHAE = inactive
NWGVYCVRDLWYRHSDMYHR = inactive
LLESTSF = inactive

Consider the additional substance presented here.
Look at this substance and give its reported amyloid nucleation score. `HPLAAGHGVYFSSCIFK`
1.7

====

Consider the following sequences and their measured amyloid nucleation score readings.
protocolSummary: amyloid nucleation score (Sup35N fusion, yeast selection) (log enrichment); library NNK1; higher = more nucleation; inactive = no reads after selection
// no unit string in output, number only

Examples with their reported amyloid nucleation score follow.
KGTAPGNSGGERVVMNSHDL = 2.61
YWWRWSVSI = 0.386

# amyloid nucleation score lookup, item `CFVFLFFVPLWSRNRGEYMY`
-0.937

Recorded amyloid nucleation score of `HIPNDARRLFGSMGVSRASA` , please.
-0.407

# amyloid nucleation score lookup, item `IFFCWTMFRS`
1.28

Which value of amyloid nucleation score has been reported for `HSGMRVPSMAYLVL` in the records?
-0.259

Suppose we examine the sequence `RASDRSSIMICF` ; what amyloid nucleation score value has been reported?
0.382

What does the record list as amyloid nucleation score for `LLRGTIFVNDRVTID` ?
0.973

====

protocolSummary: amyloid nucleation score (Sup35N fusion, yeast selection) (log enrichment); library NNK3; higher = more nucleation; inactive = no reads after selection
attributeMeasured: amyloid nucleation score

SIADRMHFLWVGEGGTRDYA = inactive
IDQDFMTVIRQS = inactive
MYFMGLFFMTGVGFSMKEVE = inactive
NTRSPAESMHHPLMAMAVKN = inactive
YTMVWFLSSYSNY = inactive
DMINSGQISDHVLD = inactive

What does the data say about its amyloid nucleation score? Entry: `VYECFSSWTWSWVCQCQAVF`
inactive

Give its amyloid nucleation score value. Item: `ICNFHSSRPLNIS`
inactive

Would you mind telling me what amyloid nucleation score value was observed for `FKTFSFFKLFCTYCYYTLTE` ?
inactive

May I ask what amyloid nucleation score has been recorded for `TVGQQWRPSRKLSSSSAIRN` ?
inactive

Quick one: amyloid nucleation score for `MYTMSHSGLVLALFDAGSWR` ?
inactive

Given the entry `PGYSFKVSA` , report its measured amyloid nucleation score.
-1.06

# lookup: amyloid nucleation score of `DAVGCNILACDSGGRDWTGG`
-0.744

Data request, read-out amyloid nucleation score, for `PFIGVSMLSMG`
-0.47

====

protocolSummary: amyloid nucleation score (Sup35N fusion, yeast selection) (log enrichment); library NNK1; higher = more nucleation; inactive = no reads after selection
Quick list: amyloid nucleation score per entry.
The answer should be written as a number, with no unit following it.

The following substances have reported results that may help.
QCKRFCCIWVCNADFVAGAW = 7.75
AINSSFWSVGLILEIDMYSY = -0.148
LYFVLPTNKLPDRSY = -0.403
FYGFRCGYLDVSL = -0.648
RETIPCVEVFTHRSLDFL = 1.15

# input for lookup
If you can, please state the reported amyloid nucleation score value of `RPYGVNR` .
-0.271

====

protocolSummary: amyloid nucleation score (Sup35N fusion, yeast selection) (log enrichment); library NNK3; higher = more nucleation; inactive = no reads after selection
attributeMeasured: amyloid nucleation score

VMYCYWSLIMSDSCNFMCQY = 2.08
GMNKLL = inactive
CGRNAAVSNARRCCSSKVCM = inactive
DANGCA = inactive
FFKDSIVLGVSLRYQFSYLT = inactive

Any idea what amyloid nucleation score was measured for `YRNMFQPRRNEAARQQLSST` ?
inactive

Fill in the blank: the reported amyloid nucleation score of `IIWAVRKGTPSSRRVTWAGK` is ____.
inactive
